This listing pairs molecules with measured DC50.
targetOfAssay: p300 (Homo sapiens)
Construct: host or cells: A549 P300 HiBit cells
Sequence (Q09472 whole entry): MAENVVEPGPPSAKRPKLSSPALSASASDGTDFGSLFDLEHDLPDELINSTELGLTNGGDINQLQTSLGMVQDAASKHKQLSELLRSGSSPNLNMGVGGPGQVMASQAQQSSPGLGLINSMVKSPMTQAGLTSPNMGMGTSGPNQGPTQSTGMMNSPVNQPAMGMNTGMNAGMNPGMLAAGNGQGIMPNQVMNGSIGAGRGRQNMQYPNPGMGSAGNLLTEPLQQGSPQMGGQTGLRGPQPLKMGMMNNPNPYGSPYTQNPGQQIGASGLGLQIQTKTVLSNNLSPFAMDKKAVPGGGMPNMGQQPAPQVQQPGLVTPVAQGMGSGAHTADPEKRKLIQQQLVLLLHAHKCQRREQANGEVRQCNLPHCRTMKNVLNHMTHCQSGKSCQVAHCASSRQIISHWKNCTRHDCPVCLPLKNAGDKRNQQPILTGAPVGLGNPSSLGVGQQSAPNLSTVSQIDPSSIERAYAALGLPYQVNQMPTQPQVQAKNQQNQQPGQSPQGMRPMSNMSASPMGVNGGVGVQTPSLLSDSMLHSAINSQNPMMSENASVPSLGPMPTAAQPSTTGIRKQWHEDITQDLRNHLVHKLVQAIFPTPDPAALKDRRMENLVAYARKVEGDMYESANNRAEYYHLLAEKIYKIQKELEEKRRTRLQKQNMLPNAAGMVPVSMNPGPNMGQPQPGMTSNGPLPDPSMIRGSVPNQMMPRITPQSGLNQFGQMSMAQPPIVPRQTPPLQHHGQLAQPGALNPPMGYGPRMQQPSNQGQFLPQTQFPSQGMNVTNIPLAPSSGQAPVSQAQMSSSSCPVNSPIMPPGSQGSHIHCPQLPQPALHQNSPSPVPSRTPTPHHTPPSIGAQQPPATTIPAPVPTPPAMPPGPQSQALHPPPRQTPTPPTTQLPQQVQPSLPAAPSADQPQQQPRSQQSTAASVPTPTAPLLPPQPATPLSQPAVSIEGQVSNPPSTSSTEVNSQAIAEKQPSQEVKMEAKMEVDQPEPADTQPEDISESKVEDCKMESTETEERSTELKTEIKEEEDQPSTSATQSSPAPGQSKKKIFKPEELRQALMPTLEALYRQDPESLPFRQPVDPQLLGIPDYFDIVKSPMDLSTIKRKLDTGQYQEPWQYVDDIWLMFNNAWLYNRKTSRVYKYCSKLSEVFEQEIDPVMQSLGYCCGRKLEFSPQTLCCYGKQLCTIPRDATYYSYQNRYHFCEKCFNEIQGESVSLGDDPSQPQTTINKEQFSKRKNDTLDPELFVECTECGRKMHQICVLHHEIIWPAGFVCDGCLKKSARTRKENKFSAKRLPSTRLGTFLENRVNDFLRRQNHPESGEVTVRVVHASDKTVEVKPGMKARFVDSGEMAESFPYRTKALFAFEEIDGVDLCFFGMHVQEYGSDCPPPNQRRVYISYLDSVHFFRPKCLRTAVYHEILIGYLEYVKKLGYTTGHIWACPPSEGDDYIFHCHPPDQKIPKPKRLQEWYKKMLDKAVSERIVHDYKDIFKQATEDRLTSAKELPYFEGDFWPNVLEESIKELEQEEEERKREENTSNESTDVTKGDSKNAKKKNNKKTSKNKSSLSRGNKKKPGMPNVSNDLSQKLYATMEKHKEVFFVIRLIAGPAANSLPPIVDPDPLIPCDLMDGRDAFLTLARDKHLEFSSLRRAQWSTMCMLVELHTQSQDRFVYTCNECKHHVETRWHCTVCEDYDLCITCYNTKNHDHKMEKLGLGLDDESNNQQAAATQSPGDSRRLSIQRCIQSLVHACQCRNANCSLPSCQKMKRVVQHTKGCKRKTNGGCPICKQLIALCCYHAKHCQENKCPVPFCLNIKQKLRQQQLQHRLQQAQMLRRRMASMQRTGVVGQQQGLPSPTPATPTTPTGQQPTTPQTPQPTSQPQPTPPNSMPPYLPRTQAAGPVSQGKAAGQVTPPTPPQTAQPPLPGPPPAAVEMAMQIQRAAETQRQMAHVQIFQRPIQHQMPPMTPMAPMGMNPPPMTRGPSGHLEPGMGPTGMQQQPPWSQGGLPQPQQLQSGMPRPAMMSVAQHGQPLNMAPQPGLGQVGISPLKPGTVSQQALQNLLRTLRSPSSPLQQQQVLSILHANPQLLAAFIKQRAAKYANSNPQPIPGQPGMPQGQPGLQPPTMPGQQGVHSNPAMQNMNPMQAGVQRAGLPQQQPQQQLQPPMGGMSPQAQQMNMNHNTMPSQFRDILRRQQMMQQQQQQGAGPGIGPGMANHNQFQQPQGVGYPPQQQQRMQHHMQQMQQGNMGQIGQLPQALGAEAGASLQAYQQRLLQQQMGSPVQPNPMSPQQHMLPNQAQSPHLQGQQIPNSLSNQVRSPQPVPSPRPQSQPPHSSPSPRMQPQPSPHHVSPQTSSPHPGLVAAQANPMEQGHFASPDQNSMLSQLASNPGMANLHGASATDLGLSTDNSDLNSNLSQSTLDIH
assayOverview: P300 degradation, HiBit technology in A549 P300 HiBit cells (2 h)
Format: cell-based
conditionInfo: A549 P300 HiBit cells, 2 hrs post treatment

{"columns": ["molecule", "DC50"],
 "data": [
  ["Cc1cc2c(-c3cccc4cc(-c5ccc(C(=O)NCC#Cc6ccc7occ(C8CCC(=O)NC8=O)c7c6)nc5)ncc34)nc(N3CC(O)C3)cc2n(C)c1=O (stereo not drawn) [Example B66]", "< 1 nM"],
  ["CCc1cc2c(cc(C)c(=O)n2C)c(-c2cccc3cc(-c4ccc(C(=O)NCC#Cc5ccc6occ(C7CCC(=O)NC7=O)c6c5)nc4)ncc23)n1 (stereo not drawn) [Example B93]", "1 to 9.9 nM"],
  ["Cc1cc2c(-c3cn(C)c(=O)c4cc(-c5ccc(C(=O)NCC#Cc6cc7c(C8CCC(=O)NC8=O)cccc7o6)nc5)ncc34)nc(N3CCOCC3)cc2n(C)c1=O (stereo not drawn) [Example B131]", "1 to 9.9 nM"]
]}

====

targetOfAssay: p300 (Homo sapiens)
Construct: host or cells: A549 P300 HiBit cells
assayOverview: P300 degradation, HiBit technology in A549 P300 HiBit cells (2 h)
Type: cell-based
conditionInfo: A549, A549 P300 HiBit cells, 2 hrs post treatment

{"columns": ["compound", "targetOfAssay", "Dmax"],
 "data": [
  ["Cc1cc(N2CCCc3nc(-c4ccc(C(=O)NCC#Cc5ccc6occ(C7CCC(=O)NC7=O)c6c5)nc4)ncc32)cc2c1n(C)c(=O)n2C (centres unmarked)", "p300 (Homo sapiens)", "> 80%"],
  ["Cn1nc(C2CCC(=O)NC2=O)c2cc(C#CCNC(=O)c3ccc(-c4ncc5c(n4)OCCN5c4ccc5c(c4)n(C)c(=O)n5C)cn3)ccc21 (centres unmarked)", "p300 (Homo sapiens)", "> 80%"],
  ["Cn1c(=O)n(C)c2cc(-c3cccc4cc(-c5ccc(C(=O)NCC#Cc6cc7c(C8CCC(=O)NC8=O)nccc7o6)nc5)ncc34)ccc21 (centres unmarked)", "p300 (Homo sapiens)", "> 80%"],
  ["CC(C)c1cc(-c2cccc3cc(-c4ccc(C(=O)NCC#Cc5cnc6c(c5)c(C5CCC(=O)NC5=O)nn6C)nc4)ncc23)cc2c1n(C)c(=O)n2C (centres unmarked)", "p300 (Homo sapiens)", "> 80%"],
  ["Cc1cc2c(N3CCCc4nc(-c5ccc(C(=O)NCC#Cc6ccc7occ(C8CCC(=O)NC8=O)c7c6)nc5)ncc43)nc(N3CCOCC3)nc2n(C)c1=O (centres unmarked)", "p300 (Homo sapiens)", "40 to 59%"],
  ["Cc1cc2c(N3CCCc4nc(-c5ccc(C(=O)NCC#Cc6cc7c(C8CCC(=O)NC8=O)cccc7o6)nc5)ncc43)cc(C3CC4CCC(C3)O4)nc2n(C)c1=O (centres unmarked)", "p300 (Homo sapiens)", "> 80%"],
  ["Cc1cc2c(N3CCCc4nc(-c5ccc(C(=O)NCC#Cc6cc7c(C8CCC(=O)NC8=O)cccc7o6)nc5)ncc43)cc(C(C)C)nc2n(C)c1=O (centres unmarked)", "p300 (Homo sapiens)", "> 80%"],
  ["Cn1c(=O)n(C)c2cc(N3CCOc4nc(-c5ccc(C(=O)NCC#Cc6cc7cccc(C8CCC(=O)NC8=O)c7o6)nc5)ncc43)ccc21 (centres unmarked)", "p300 (Homo sapiens)", "20 to 39%"],
  ["Cn1c(=O)n(C)c2cc(-c3cccc4cc(-c5cnc(C(=O)NCC#Cc6ccc7occ(C8CCC(=O)NC8=O)c7c6)c(Cl)c5)ncc34)ccc21 (centres unmarked)", "p300 (Homo sapiens)", "> 80%"],
  ["Cc1cc(-c2ncc(N(C)c3cc(C(C)C)c4c(c3)n(C)c(=O)n4C)cn2)cnc1C(=O)NCC#Cc1ccc2occ(C3CCC(=O)NC3=O)c2c1 (centres unmarked)", "p300 (Homo sapiens)", "> 80%"],
  ["Cn1c(=O)oc2cc(-c3cccc4cc(-c5ccc(C(=O)NCC#Cc6ccc7occ(C8CCC(=O)NC8=O)c7c6)nc5)ncc34)ccc21 (centres unmarked)", "p300 (Homo sapiens)", "< 20%"],
  ["Cc1cc2c(N3CCCc4nc(-c5ccc(C(=O)NCC#Cc6ccc7occ(C8CCC(=O)NC8=O)c7c6)nc5)ncc43)cc(N3CCOCC3)nc2n(C)c1=O (centres unmarked)", "p300 (Homo sapiens)", "60 to 79%"],
  ["Cc1cc2c(N3CCCc4nc(-c5ccc(C(=O)NCC#Cc6cc7c(C8CCC(=O)NC8=O)cccc7o6)nc5)ncc43)cc(C3(F)CCOCC3)cc2n(C)c1=O (centres unmarked)", "p300 (Homo sapiens)", "> 80%"],
  ["CC(C)c1cc(N(C)c2cnc(-c3ccc(C(=O)NCC#Cc4ccc5occ(C6CCC(=O)NC6=O)c5c4)nc3)nc2)cc2c1n(C)c(=O)n2C (centres unmarked)", "p300 (Homo sapiens)", "> 80%"],
  ["Cn1c(=O)oc2ccc(-c3cccc4cc(-c5ccc(C(=O)NCC#Cc6ccc7occ(C8CCC(=O)NC8=O)c7c6)nc5)ncc34)cc21 (centres unmarked)", "p300 (Homo sapiens)", "< 20%"],
  ["Cn1c(=O)n(C)c2cc(-c3cccc4cc(-c5ccc(C(=O)NCC#Cc6ccc7cnn(C8CCC(=O)NC8=O)c7c6)nc5)ncc34)ccc21 (centres unmarked)", "p300 (Homo sapiens)", "> 80%"],
  ["CCn1c(=O)n(C)c2c(N3CCOCC3)nc(-c3cccc4cc(-c5ccc(C(=O)NCC#Cc6ccc7occ(C8CCC(=O)NC8=O)c7c6)nc5)ncc34)cc21 (centres unmarked)", "p300 (Homo sapiens)", "> 80%"],
  ["Cn1c(=O)n(C)c2cc(-c3cccc4cc(-c5ccc(C(=O)NCC#Cc6cc7c(C8CCC(=O)NC8=O)cccc7o6)nc5)ncc34)ccc21 (centres unmarked)", "p300 (Homo sapiens)", "> 80%"],
  ["Cc1cc2c(N3CCCc4nc(-c5ccc(C(=O)NCC#Cc6ccc7c(c6)c(C6CCC(=O)NC6=O)nn7C)nc5)ncc43)cc(C3CCOCC3)cc2n(C)c1=O (centres unmarked)", "p300 (Homo sapiens)", "> 80%"],
  ["CC(C)c1cc(-c2cccc3cc(-c4ccc(C(=O)NCC#Cc5ccc6oc(=O)n(C7CCC(=O)NC7=O)c6c5)nc4)ncc23)cc2c1n(C)c(=O)n2C (centres unmarked)", "p300 (Homo sapiens)", "> 80%"],
  ["COc1cc(C#CCNC(=O)c2ccc(-c3cc4cccc(-c5cc(C(C)C)c6c(c5)n(C)c(=O)n6C)c4cn3)cn2)cc2c1cnn2C1CCC(=O)NC1=O (centres unmarked)", "p300 (Homo sapiens)", "60 to 79%"],
  ["Cc1cc(-c2ncc3c(n2)OCCN3c2cc3c(c(N4CCOCC4)n2)n(C)c(=O)n3C)cnc1C(=O)NCC#Cc1ccc2occ(C3CCC(=O)NC3=O)c2c1 (centres unmarked)", "p300 (Homo sapiens)", "< 20%"],
  ["COc1cc(-c2ccc(N(C)c3cc(C(C)C)c4c(c3)n(C)c(=O)n4C)cn2)cnc1C(=O)NCC#Cc1cccc(NC2CCC(=O)NC2=O)c1 (centres unmarked)", "p300 (Homo sapiens)", "> 80%"]
]}

Hello, the source for this data is patent US20250114345A1, in case you need it.
